Assignment: determine reported CC50 at 24 h for the given molecules.
- ASSAY EXPLANATION: in vitro
- STATED CONDITIONS: rat, gh3-tre-luc cells, AC50 (uM) modified / 1000
Where a name gives a salt, the structure may show the parent alone.

Answered cases to consult:
molecule=CCOc1cc([N+](=O)[O-])c(OCC)cc1N1CCOCC1 result="> 90 µM"
molecule="CCOc1cc(OCC)c(C(=O)CCC(=O)O)cc1OCC [Trepibutone]" result="> 50 µM"
molecule=O=C(O)CCN(C1(C(=O)NO)CCCC1)S(=O)(=O)c1ccc(Oc2ccc(F)cc2)cc1 result="> 90 µM"
molecule=Oc1ccc(-c2ccccc2)cc1Cl result="81 µM"
molecule="CCOC(=O)c1ccc(I)cc1 [Ethyl 4-iodobenzoate]" result="> 90 µM"
molecule=C=CCCC(=O)O result="> 90 µM"
molecule=OC/C=C/c1ccccc1 result="> 100 µM"
molecule=CC(C)(O)c1ccc(CNC(=O)c2cccnc2Oc2ccc3nonc3c2)cc1 result="> 90 µM"
molecule="COP(=O)(OC)OC(c1ccc(Cl)cc1)P(=O)(OC)OC (stereo not shown) [Mifobate]" result="> 50 µM"
molecule=COc1c(Cl)ccc(Cl)c1C(=O)O result="> 90 µM"

Could you report CC50 at 24 h for every entry in the following list?
1. c1ccc(-c2ccc(C(c3ccccc3)n3ccnc3)cc2)cc1 (stereo not shown)
2. CCCCOCCOCCOC(=O)CCCCC(=O)OCCOCCOCCCC [Bis[2-(2-butoxyethoxy)ethyl] adipate]
3. Cn1cnc2c(O)nc(N)nc21
4. CC(C)(C)NC[C@H](O)COc1cccc2c1CCCC2=O [Levobunolol hydrochloride]
5. CCCO[Si](OCCC)(OCCC)OCCC [Tetrapropyl orthosilicate]
6. O=C(O)CCS

-- reply
1. 45.2 µM
2. > 90 µM
3. > 90 µM
4. > 20 µM
5. > 90 µM
6. > 90 µM

---

Please go through the items and note down their CC50 at 24 h.
- ASSAY EXPLANATION: in vitro
- STATED CONDITIONS: rat, gh3-tre-luc cells, AC50 (uM) modified / 1000

The following compounds have reported results that may help.
compound=CN(C)CCc1c[nH]c2ccc(C[C@H]3COC(=O)N3)cc12 result="> 50 µM"
compound="CCCCCCCC/C=C\\CCCCCCCCN [(Z)-9-Octadecenylamine]" result="> 50 µM"
compound=CC(C)(C)S result="> 90 µM"

# CC50 at 24 h (compound: C=CC(C)(C)CC(=O)OC [Methyl 3,3-dimethylpent-4-enoate] ) is > 90 µM

---

- ASSAY EXPLANATION: in vitro
- STATED CONDITIONS: rat, gh3-tre-luc cells, AC50 (uM) modified / 1000
Counter-ions that a name gives are not always drawn.
What CC50 at 24 h was measured for each of the following?

Some solved entries appear below for comparison.
compound=CC(=O)N[C@@H]([C@@H](O)[C@H](O)[C@H](O)CO)[C@@H](O)CC(=O)C(=O)O endpoint="CC50 at 24 h" result="> 50 µM"
compound="CC(=O)Nc1ccc(OC(=O)c2ccccc2OC(C)=O)cc1 [Benorylate]" endpoint="CC50 at 24 h" result="> 50 µM"
compound="OC1OC[C@@H](O)[C@H](O)[C@H]1O (stereo partly drawn)" endpoint="CC50 at 24 h" result="> 90 µM"
compound="Cc1ccc2c(n1)Oc1ccc(C(C)C(=O)OCC(=O)N(C)C)cc1C2 (stereo not drawn)" endpoint="CC50 at 24 h" result="> 50 µM"
compound=CCOCCOCC endpoint="CC50 at 24 h" result="> 100 µM"
compound="CC(COc1ccccc1)N(CCCl)Cc1ccccc1 (stereo not drawn) [Phenoxybenzamine hydrochloride]" endpoint="CC50 at 24 h" result="45 µM"
compound=CCOc1ccc(N)c([N+](=O)[O-])c1 endpoint="CC50 at 24 h" result="> 90 µM"
compound=C=CCc1cc(S(=O)(=O)c2ccc(O)c(CC=C)c2)ccc1O endpoint="CC50 at 24 h" result="49.1 µM"
compound=Cc1cc(O)c(C(C)(C)C)cc1Sc1cc(C(C)(C)C)c(O)cc1C endpoint="CC50 at 24 h" result="3.64 µM"
compound=Nc1cc(C(=O)O)c(O)c(S(=O)(=O)O)c1 endpoint="CC50 at 24 h" result="> 90 µM"

For every listed record, write down its CC50 at 24 h.
1. COc1ccc(Br)c(C)c1
2. Clc1sc(Cl)c(Cl)c1Cl
3. O=C(O)CCc1nc(-c2ccccc2)c(-c2ccccc2)o1
4. OC[C@@H](O)[C@H](O)[C@@H](O)[C@@H](O)CO

-- reply
1. > 90 µM
2. > 90 µM
3. > 50 µM
4. > 90 µM
